Cited source: ChEMBL document CHEMBL1157628

test system: Stylophora pistillata; experiment: Activation of Stylophora pistillata carbonic anhydrase STPCA by stopped flow CO2 hydration assay
Quick rule: KA of at least 30 µM means YES, below that means NO.

Ask | Hi team, for `NCCN1CCOCC1` , is the recorded KA at or above 30 µM?
Reply | YES

---

molecular target: Carbonic anhydrase 6 (Homo sapiens); assay: Activation of human full length CA6 by stopped flow CO2 hydration assay
# KA listing for each entry below
Enter your answer as a number in µM; do not include the unit.

Consider the reported KA for these compounds:
INSERT INTO measurements (smiles_notation, result_number) VALUES
  ('N[C@@H](Cc1c[nH]c2ccccc12)C(=O)O', 15),
  ('NCCc1c[nH]c2ccc(O)cc12', 19);

Ask | Need KA of `NCCc1ccc(O)c(O)c1` , thanks.
Reply | 21

Ask | // KA lookup, key: `N[C@H](Cc1c[nH]cn1)C(=O)O`
Reply | 13

Ask | // KA lookup, key: `CNC[C@@H](O)c1ccc(O)c(O)c1`
Reply | 58

---

tested on: Stylophora pistillata; experiment: Activation of Stylophora pistillata carbonic anhydrase STPCA by stopped flow CO2 hydration assay
Rule: KA under 30 µM gives criterion not met, otherwise criterion met.

Example entries begin here.
INSERT INTO results (smiles_notation, test_system, cat) VALUES
  ('NCCc1c[nH]cn1', 'Stylophora pistillata', 'criterion met'),
  ('N[C@H](Cc1ccc(O)c(O)c1)C(=O)O', 'Stylophora pistillata', 'criterion not met'),
  ('NCCN1CCNCC1', 'Stylophora pistillata', 'criterion not met'),
  ('N[C@H](Cc1c[nH]c2ccccc12)C(=O)O', 'Stylophora pistillata', 'criterion not met'),
  ('NCCc1ccc(O)c(O)c1', 'Stylophora pistillata', 'criterion met');

Ask | Answer whether KA of `N[C@H](Cc1c[nH]cn1)C(=O)O` is greater than or equal to 30 µM.
Reply | criterion not met

Ask | Item `N[C@@H](Cc1ccc(O)c(O)c1)C(=O)O` with KA of 30 µM or above?
Reply | criterion not met

Ask | Form field: KA at least 30 µM? Entry: `NCCc1c[nH]c2ccc(O)cc12`
Reply | criterion met

Ask | // inclusive: KA at least 30 µM? input: `CNC[C@@H](O)c1ccc(O)c(O)c1`
Reply | criterion met

Ask | Given the entry `N[C@@H](Cc1c[nH]cn1)C(=O)O` , answer whether its KA meets or surpasses 30 µM.
Reply | criterion not met

Ask | Identify whether the reported KA of the following compound is 30 µM or greater: `N[C@@H](Cc1ccc(O)cc1)C(=O)O`
Reply | criterion met

---

biological target: UniProt P23280; assay: Activation of human full length CA6 by stopped flow CO2 hydration assay
Sequence (P23280 whole entry): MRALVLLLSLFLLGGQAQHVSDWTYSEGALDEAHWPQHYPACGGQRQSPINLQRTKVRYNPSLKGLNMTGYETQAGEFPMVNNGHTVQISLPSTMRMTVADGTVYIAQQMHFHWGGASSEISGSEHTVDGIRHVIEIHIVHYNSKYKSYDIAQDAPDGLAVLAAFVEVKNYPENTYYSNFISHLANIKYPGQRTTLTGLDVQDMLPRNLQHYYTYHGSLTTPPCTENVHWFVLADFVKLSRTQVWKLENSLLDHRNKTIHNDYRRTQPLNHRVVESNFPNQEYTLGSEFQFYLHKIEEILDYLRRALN
Recorded KA, one value per entry.
// note: answer is a bare numeric in µM

INSERT INTO results (smiles_notation, result_number) VALUES
  ('N[C@@H](Cc1c[nH]cn1)C(=O)O', 32);

Ask | Looking for the measured KA of `N[C@H](Cc1c[nH]c2ccccc12)C(=O)O` , can you help?
Reply | 39

Ask | Could you tell me which KA is on file for `N[C@@H](Cc1ccc(O)c(O)c1)C(=O)O` ?
Reply | 18

Ask | Which measured KA value corresponds to `Nc1ccc(C[C@H](N)C(=O)O)cc1` ?
Reply | 5.32

Ask | Data request, read-out KA, for `N[C@@H](Cc1ccc(O)cc1)C(=O)O`
Reply | 9.31

Ask | What does the data say about its KA? Entry: `NCCc1ccccn1`
Reply | 18

Ask | Quick one: KA of `N[C@H](Cc1ccc(O)c(O)c1)C(=O)O` ?
Reply | 4.58

Ask | Any idea what its KA is? The compound is `NCc1ccccn1`
Reply | 14

Ask | Look up KA for this compound: `NCCN1CCOCC1`
Reply | 42
